Reference for the values: patent US12195427B2

# Measured On: MASP-2 CCP2-SP (Homo sapiens (Human), UniProt O00187)
# Sequence (O00187 445-686): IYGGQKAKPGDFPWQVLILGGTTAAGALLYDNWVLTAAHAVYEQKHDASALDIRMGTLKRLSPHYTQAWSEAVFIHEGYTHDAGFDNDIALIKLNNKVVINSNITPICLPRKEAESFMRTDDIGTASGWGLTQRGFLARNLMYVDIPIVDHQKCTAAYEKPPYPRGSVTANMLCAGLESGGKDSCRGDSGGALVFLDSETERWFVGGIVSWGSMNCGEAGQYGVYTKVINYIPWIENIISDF
# Sequence (O00187 364-432 partner): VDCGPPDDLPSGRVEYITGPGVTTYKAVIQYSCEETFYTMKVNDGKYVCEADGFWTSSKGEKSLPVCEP
# Protocol: MASP-2 co-crystallization, X-ray crystallography and structure analysis (H-bonds, van der Waals contacts)
# Stated Conditions: Table A7-1; between pharmacophore elements of the bound compound
Counter-ions that a name gives are not always drawn.
Items are presented alongside their recorded Pharmacophore torsion angle a(H4, O1, O2, N2).
Could you keep your reply to the number by itself?

Problem: Dear colleague, I am looking for the recorded Pharmacophore torsion angle a(H4, O1, O2, N2) of the following compound: C[C@H](NC(=O)[C@H]1Cc2c([nH]c3ccccc23)CN1)C(=O)NCc1ccc(C(=N)N)cc1.Cl.Cl [1097_2]
Solution: 129.42

Problem: Follow-up item: C[C@H](NC(=O)[C@H]1C[C@H](Cc2ccccc2)CN1)C(=O)NCc1cc(Cl)ccc1-n1cnnn1 [compound 1371, Hydrochloride]
Solution: −174.11

###

# Measured On: MASP-2 CCP2-SP (Homo sapiens (Human))
# Protocol: MASP-2 co-crystallization, X-ray crystallography and structure analysis (H-bonds, van der Waals contacts)
# Stated Conditions: Table A4-2; element H2
This section presents molecules with their documented Ligand-pharmacophore element distance, pharmacophore element H2 values.
In your answer, state the number alone without any accompanying words.

N=C(N)c1ccc(CNC(=O)[C@@H]2CCN2C(=O)[C@H]2Cc3ccccc3CN2)cc1 = 0

Problem: Which Ligand-pharmacophore element distance, pharmacophore element H2 is reported with MASP-2 CCP2-SP (Homo sapiens (Human)) for this entry: N=C(N)c1ccc(CNC(=O)[C@@H]2CCN2C(=O)[C@H](NCC(=O)O)C2Cc3ccccc3C2)cc1 ?
Solution: 0

Problem: Now give it for O=c1oc(-c2ccccc2[N+](=O)[O-])nc2ccccc12 too.
Solution: 4.66

Problem: And the next one, C[C@H](NC(=O)[C@H](N)CCCc1ccccc1)C(=O)NCc1ccc(C(=N)N)cc1.Cl.Cl [1042_1] ?
Solution: 0

Problem: Would you mind doing C[C@H](NC(=O)[C@H](N)CCCc1ccccc1)C(=O)NCc1ccc(C(=N)N)cc1.Cl.Cl [1042_2] as well?
Solution: 0

Problem: Would you mind doing C[C@H](NC(=O)[C@H](N)CCc1ccccc1)C(=O)NCc1ccc(C(=N)N)cc1 as well?
Solution: 0

###

# Measured On: UniProtKB O00187
# Protocol: MASP-2 co-crystallization, X-ray crystallography and structure analysis (H-bonds, van der Waals contacts)
# Stated Conditions: Table A2-9; ARG 630; AA atoms CG, CZ
Counter-ions that a name gives are not always drawn.
Measured Property: van der Waals contact distance, MASP-2 amino acid atom to compound atom
Format: numeric value only, no unit, no commentary.

C[C@H](NC(=O)[C@H]1C[C@@H](c2ccccc2)CCN1)C(=O)NCc1cc(Cl)ccc1O [compound 1078] = 3.78

Problem: Fill in: van der Waals contact distance, MASP-2 amino acid atom to compound atom of Cc1nc(N)ccc1CNC(=O)[C@H](C)NC(=O)[C@H]1C[C@@H](Cc2ccccc2)CCN1 [compound 1353] is ___
Solution: 3.74

Problem: Continue with C[C@H](NC(=O)[C@H](N)C1Cc2ccccc2C1)C(=O)NCc1ccc2nc(N)[nH]c2c1 [compound 1059]
Solution: 3.14

Problem: What would you report for N=C(N)c1ccc(CNC(=O)C(CF)NC(=O)[C@H](N)CCc2ccccc2)cc1 (stereo partly shown) [compound 1050, Dihydrochloride] ?
Solution: 3.66
